The entries below are paired with their reported binding signal.
target-system: SIX1-Q177R homeodomain (human, UniProt Q15475 108-198, Q177R)
Sequence: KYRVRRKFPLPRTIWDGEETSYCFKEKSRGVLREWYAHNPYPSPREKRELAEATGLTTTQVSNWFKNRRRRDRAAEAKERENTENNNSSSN
method: universal protein binding microarray; Universal all-10-mer PBM (8x60K, AMADID 030236), 300 nM GST-tagged protein, Alexa Fluor 488 anti-GST; buffer, salt, pH and temperature not stated (as in Berger); high values mean tight binding
run-conditions: protein: ivt; tags: N-terminal GST; dsDNA, one strand shown
In all, about 33,000 sequences were measured (“e-score”: median about -0.05, highest 2% from about 0.38 on). This excerpt belongs to a sample that is enriched for the highest values.
Numeric only. Scale: E-score

The following sequences have reported results that may help.
chain-sequence | binding signal [E-score]
ATCCCTAG | 0.154
ATGCCAAG | 0.162
CCTGAACA | 0.254
CCGCCCCA | 0.239
AATTTACA | 0.182

(Q) Quick check: binding signal on SIX1-Q177R homeodomain (human, UniProt Q15475 108-198, Q177R), item `CACCAAAC` ?
(A) 0.283

(Q) For `CACCGCAA` then?
(A) 0.284

(Q) Moving on to the next sequence: `ACGCACCC`
(A) 0.265
